procedure_summary: Liver microsomal metabolic stability, human liver microsomes (HLM)
measurement_parameters: human, liver microsomes
Each item that follows carries a reported half-life at 1 μM.

{"compound": "CCn1cc(C(F)(F)F)nc1-c1ccc(CN2C(=O)CCn3nc(-c4c(Cl)cnn4C(C)C)nc32)cc1F", "meas_value": "> 25 min"}
{"compound": "CCn1cc(C(F)(F)F)nc1-c1ccc(CNC2CCCn3nc(-c4c(Cl)cnn4C(C)C)cc32)cc1 (stereo not shown)", "meas_value": "< 25 min"}
{"compound": "COc1ncnc(C2CC2)c1-c1nc2n(n1)CCC(=O)N2[C@@H](C)c1ccc(-c2nc(C(F)(F)F)cn2C(C)C)c(F)c1", "meas_value": "> 25 min"}
{"compound": "Cn1cc(C(F)(F)F)nc1-c1ccc(CN2C(=O)CCn3nc(-c4c(Cl)cnn4C4CCC4)cc32)cc1F", "meas_value": "< 25 min"}

CCn1cc(C(F)(F)F)nc1-c1ccc([C@H](C)N2C(=O)CCn3nc(-c4c(OC(F)F)ncnc4C4CC4)nc32)cc1 has a reported half-life at 1 μM of < 25 min

Kindly note the recorded half-life at 1 μM for CC(C)n1ncc(Cl)c1-c1cc2n(n1)CCC(=O)N2Cc1ccc(-c2nc(C(F)(F)F)cn2C)cc1 , which is > 25 min

The compound identified as CCn1cc(C(F)(F)F)nc1-c1ccc(OC2CCCn3nc(-c4c(Cl)cnn4C(C)C)cc32)cc1F (stereo not shown) registered its half-life at 1 μM at > 25 min

Briefly, half-life at 1 μM measured for CCn1cc(C(F)(F)F)nc1-c1ccc([C@@H](C)n2c(=O)ccn3nc(-c4c(OC)ncnc4C4CC4)nc23)cc1 : > 25 min

Measured half-life at 1 μM, CCn1cc(C(F)(F)F)nc1-c1ccc([C@@H](C)N2C(=O)CCn3nc(-c4c(Cl)cnn4C(C)C)cc32)cn1 : > 25 min

----------
Tested on: Ub-PCNA levels in the nucleus of ES2 cells (USP1 activity)
procedure_summary: ES2 Ub-PCNA immunofluorescence (IF) assay
Type: cell-based
measurement_parameters: Homo sapiens, ES-2; ES2 cells, 3 hours, Ub-PCNA immunofluorescence; read-out: USP1 IC50 (Ub-PCNA)
pIC50: −log10 of the molar value.
Measured pIC50 values are reported for all entries that follow.

Recorded results for 5 compounds are shown here.
{"compound": "COc1ncnc(C2CC2)c1-c1cc2n(n1)CCCN2Cc1ccc(-n2nc(C(F)(F)F)cc2C)cc1 [Example 27]", "meas_value": "> 7.00"}
{"compound": "CCn1cc(C(F)(F)F)nc1-c1ccc([C@H](C)n2c(=O)ccn3nc(-c4c(OC)ncnc4C4CC4)cc23)cc1 [Example 336]", "meas_value": "> 7.00"}
{"compound": "COc1ncnc(C2CC2)c1-c1nc2n(n1)CCC(=O)N2[C@@H](C)c1ccc(-c2nc(C(F)(F)F)cn2C)c(F)c1 [Example 196]", "meas_value": "> 7.00"}
{"compound": "CCn1cc(C(F)(F)F)nc1-c1ccc([C@@H](C)N2C(=O)CCn3nc(-c4c(Cl)cnn4C(C)C)nc32)cc1OC [Example 180]", "meas_value": "6.30 to 7.00"}
{"compound": "CC(C)n1ncc(Cl)c1-c1cc2n(n1)CCC(=O)N2Cc1ccc(-c2nc(C(F)(F)F)cn2CCF)cc1 [Example 79]", "meas_value": "> 7.00"}

Tested on Ub-PCNA levels in the nucleus of ES2 cells (USP1 activity), the item CCn1cc(C(F)(F)F)nc1-c1ccc(CN2C(=O)CCn3nc(-c4c(OC)ncnc4C4CC4)nc32)cc1F [Example 44] showed pIC50 equal to > 7.00

// compound CCn1cc(C(F)(F)F)nc1-c1ccc(CN2C(=O)CCn3nc(-c4c(Cl)cnn4C4(COC)CC4)cc32)cc1 [Example 159] , assay Ub-PCNA levels in the nucleus of ES2 cells (USP1 activity), pIC50 value: 6.30 to 7.00

----------
target: USP1/UAF1 enzyme (Homo sapiens, UniProt O94782)
Sequence (O94782 whole entry): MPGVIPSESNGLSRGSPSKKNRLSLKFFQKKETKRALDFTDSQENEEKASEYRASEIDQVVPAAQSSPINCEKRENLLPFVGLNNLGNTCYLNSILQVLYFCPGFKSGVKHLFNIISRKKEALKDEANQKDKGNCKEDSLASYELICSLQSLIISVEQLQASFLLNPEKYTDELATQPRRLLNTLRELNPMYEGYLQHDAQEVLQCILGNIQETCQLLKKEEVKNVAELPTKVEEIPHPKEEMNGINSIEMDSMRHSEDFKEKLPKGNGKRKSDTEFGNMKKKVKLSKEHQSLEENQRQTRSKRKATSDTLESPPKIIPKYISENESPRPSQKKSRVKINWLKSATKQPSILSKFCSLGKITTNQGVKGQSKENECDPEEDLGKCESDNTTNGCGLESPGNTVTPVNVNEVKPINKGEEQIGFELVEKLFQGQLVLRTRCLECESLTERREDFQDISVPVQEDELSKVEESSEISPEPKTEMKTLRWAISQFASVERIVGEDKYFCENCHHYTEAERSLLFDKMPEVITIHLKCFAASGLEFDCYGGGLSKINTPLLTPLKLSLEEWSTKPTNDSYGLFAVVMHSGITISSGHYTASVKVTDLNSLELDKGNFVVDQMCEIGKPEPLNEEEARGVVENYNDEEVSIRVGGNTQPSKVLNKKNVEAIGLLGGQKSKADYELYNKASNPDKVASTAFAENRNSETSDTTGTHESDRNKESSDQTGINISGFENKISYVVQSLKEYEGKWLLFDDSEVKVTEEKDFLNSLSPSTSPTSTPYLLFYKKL
Sequence (Q8TAF3 whole entry partner): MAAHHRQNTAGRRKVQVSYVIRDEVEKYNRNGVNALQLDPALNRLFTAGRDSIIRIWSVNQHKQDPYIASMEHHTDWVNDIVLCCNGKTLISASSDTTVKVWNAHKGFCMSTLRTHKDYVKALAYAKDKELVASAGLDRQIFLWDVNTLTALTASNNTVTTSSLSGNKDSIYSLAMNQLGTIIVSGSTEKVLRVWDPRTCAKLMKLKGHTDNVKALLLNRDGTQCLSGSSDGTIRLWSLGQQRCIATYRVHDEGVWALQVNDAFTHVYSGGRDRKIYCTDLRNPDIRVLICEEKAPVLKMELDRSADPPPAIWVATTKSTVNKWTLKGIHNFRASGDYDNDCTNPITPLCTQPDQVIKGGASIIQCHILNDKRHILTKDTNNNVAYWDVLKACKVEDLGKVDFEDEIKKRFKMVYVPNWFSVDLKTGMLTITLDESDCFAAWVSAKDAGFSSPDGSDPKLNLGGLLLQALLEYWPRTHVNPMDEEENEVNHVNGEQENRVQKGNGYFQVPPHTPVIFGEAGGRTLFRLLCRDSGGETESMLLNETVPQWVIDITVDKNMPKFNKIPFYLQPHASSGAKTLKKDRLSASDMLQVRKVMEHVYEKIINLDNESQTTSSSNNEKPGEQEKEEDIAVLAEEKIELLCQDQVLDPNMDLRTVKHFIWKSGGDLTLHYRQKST
procedure_summary: USP1/UAF1 deubiquitination assay (ubiquitin-rhodamine 110 substrate)
measurement_parameters: read-out: USP1 IC50 (Ub-Rho)
Catalogue of IC50 readings, one per entry.

Please review the entries below; each comes with its answer.
{"molecule": "COc1ncnc(C2CC2)c1-c1nc2n(n1)CCC(=O)N2[C@@H](C)c1ccc(-n2nc(C(F)(F)F)cc2C)c(F)c1", "meas_value": "100 to 500 nM"}
{"molecule": "[2H]C([2H])([2H])C([2H])(n1cc(C(F)(F)F)nc1-c1ccc(CN2C(=O)CCn3nc(-c4c(OC(F)F)ncnc4C4CC4)nc32)cc1)C([2H])([2H])[2H]", "meas_value": "< 100 nM"}
{"molecule": "COc1ncnc(C2CC2)c1-c1nc2n(n1)CCC(=O)N2Cc1ccc(-c2nc(C(F)(F)F)cn2C(C)C)c(F)c1OC", "meas_value": "< 100 nM"}

molecule Cc1cnn(C(C)C)c1-c1nn2c(c1Cl)N(Cc1ccc(-c3nc(C(F)(F)F)cn3C)cc1)C(=O)CC2 , IC50 observed: 100 to 500 nM

Reported IC50 ( CC(C)n1ncc(Cl)c1-c1cc2n(n1)CCC(=O)N2Cc1ccc(-c2ccn(C)n2)cc1 ) = 100 to 500 nM

Lab book: IC50 of CCn1cc(C(F)(F)F)nc1-c1ccc(OC2CCCn3nc(-c4c(Cl)cnn4C(C)C)cc32)cc1F (stereo not shown) noted as < 100 nM

The measured IC50 associated with CCn1cc(C(F)(F)F)nc1-c1ccc(CN2C(=O)CCn3nc(-c4c(Cl)cnn4C4(COC)CC4)cc32)cc1F reads < 100 nM

----------
Test system: Ub-PCNA levels in the nucleus of ES2 cells (USP1 activity)
procedure_summary: ES2 Ub-PCNA immunofluorescence (IF) assay
Assay type: cell-based
measurement_parameters: Homo sapiens, ES-2; ES2 cells, 3 hours, Ub-PCNA immunofluorescence; read-out: USP1 IC50 (Ub-PCNA)
pIC50: −log10 of the molar value.
Listing of entries alongside the reported pIC50.

Record excerpt, results attached:
{"compound": "CCn1cc(C(F)(F)F)nc1-c1ccc(CN2c3cc(-c4c(OC)ncnc4C4CC4)nn3CCC2C)cc1F (stereo not shown)", "meas_value": "> 7.00"}
{"compound": "Cc1cnn(C(C)C)c1-c1nn2c(c1Cl)N(Cc1ccc(-c3nc(C(F)(F)F)cn3C(C)C)c(F)c1)CCC2", "meas_value": "> 7.00"}
{"compound": "Cc1cc(C(F)(F)F)nn1-c1ccc(CN2C(=O)CCn3nc(-c4c(Cl)cnn4C(C)C)cc32)cc1F", "meas_value": "6.30 to 7.00"}
{"compound": "CCn1cc(C(F)(F)F)nc1-c1ccc([C@@H](C)N2C(=O)CCn3nc(-c4c(OC)ncnc4C4CC4)nc32)cc1F", "meas_value": "> 7.00"}
{"compound": "CC(C)n1ncc(Cl)c1-c1cc2n(n1)CCCN2Cc1ccc(-c2nc(C(F)(F)F)cn2C)c(F)c1", "meas_value": "> 7.00"}
{"compound": "CCn1cc(C(F)(F)F)nc1-c1ccc(CN2C(=O)[C@@H](C)Cn3nc(-c4c(OC)ncnc4C4CC4)nc32)cc1F (single isomer, unassigned)", "meas_value": "> 7.00"}

Note to self: pIC50 recorded for COc1ncnc(C2CC2)c1-c1nc2n(n1)CCC(=O)N2[C@@H](C)c1ccc(-c2nc(C(F)(F)F)cn2C(C)C)cc1 was > 7.00

----------
Quick list: IC50 per entry.
System: Ub-PCNA levels in the nucleus of ES2 cells (USP1 activity)
procedure_summary: ES2 Ub-PCNA immunofluorescence (IF) assay
Type: cell-based
measurement_parameters: Homo sapiens, ES-2; ES2 cells, 3 hours, Ub-PCNA immunofluorescence; read-out: USP1 IC50 (Ub-PCNA)

Please review the entries below; each comes with its answer.
{"compound": "CCn1cc(C(F)(F)F)nc1-c1ccc([C@H](C)N2C(=O)CCn3nc(-c4c(OC)ncnc4C4CC4)cc32)cc1F", "IC50": "100 to 500 nM"}
{"compound": "CCn1cc(C(F)(F)F)nc1-c1ccc(N(C)C2CCCn3nc(-c4c(Cl)cnn4C(C)C)cc32)cc1 (stereo not shown)", "IC50": "100 to 500 nM"}
{"compound": "Cc1cnn(C(C)C)c1-c1nn2c(c1Cl)N(Cc1ccc(-c3nc(C(F)(F)F)cn3C)cc1)CCC2", "IC50": "< 100 nM"}
{"compound": "CCn1cc(C(F)(F)F)nc1-c1ccc(C(C)n2c(=O)ccn3nc(-c4c(OC)ncnc4C4CC4)nc23)cc1 (stereo not shown)", "IC50": "< 100 nM"}

Ub-PCNA levels in the nucleus of ES2 cells (USP1 activity) assay, compound COc1ncnc(C2CC2)c1-c1nc2n(n1)CCC(=O)N2[C@H](C)c1ccc(-c2nc(C(F)(F)F)cn2C2CC2)cc1 , recorded IC50 = < 100 nM

Result for CCn1cc(C(F)(F)F)nc1-c1ccc([C@@H](C)n2c(=O)ccn3nc(-c4c(OC)ncnc4C4CC4)nc23)cc1 , tested on Ub-PCNA levels in the nucleus of ES2 cells (USP1 activity), IC50: < 100 nM

Ub-PCNA levels in the nucleus of ES2 cells (USP1 activity) data for CCn1cc(C(F)(F)F)nc1-c1ccc([C@H](C)N2C(=O)CCn3nc(-c4c(C#N)cnn4C(C)C)cc32)cc1F (single isomer, unassigned) ; its IC50: 100 to 500 nM

So the reported IC50 for CCOc1cc(C(F)(F)F)nn1-c1ccc(CN2C(=O)CCn3nc(-c4c(Cl)cnn4C(C)C)cc32)cc1 , on Ub-PCNA levels in the nucleus of ES2 cells (USP1 activity), turned out to be < 100 nM

Form field, IC50 with Ub-PCNA levels in the nucleus of ES2 cells (USP1 activity), item CCn1cc(C(F)(F)F)nc1-c1ccc(Cn2c(=O)ccn3nc(-c4c(OC(F)F)ncnc4C4CC4)nc23)cc1 : < 100 nM

GET /values?item= CCn1cc(C(F)(F)F)nc1-c1ccc(NC2CCCn3nc(-c4c(Cl)cnn4C(C)C)cc32)cc1C#N (stereo not shown) &system= Ub-PCNA levels in the nucleus of ES2 cells (USP1 activity) returns IC50: 100 to 500 nM

Assay Ub-PCNA levels in the nucleus of ES2 cells (USP1 activity), sample Cc1cnn(C(C)C)c1-c1cc2n(n1)CCCN2Cc1ccc(-c2nc(C(F)(F)F)nn2C)cc1 , IC50 read: 100 to 500 nM

Bench note, Ub-PCNA levels in the nucleus of ES2 cells (USP1 activity): CCn1cc(C(F)(F)F)nc1-c1ccc([C@@H](C)N2C(=O)CCn3nc(-c4c(OC)ncnc4C4CC4)cc32)cc1 , IC50 reads < 100 nM

Record for COc1ncnc(C2CC2)c1-c1cc2n(n1)C(C)CCN2Cc1ccc(-c2nc(C(F)(F)F)cn2C)cc1 (racemic) under target or system Ub-PCNA levels in the nucleus of ES2 cells (USP1 activity): IC50 reported as < 100 nM

IC50 for Ub-PCNA levels in the nucleus of ES2 cells (USP1 activity) with input CCn1cc(C(F)(F)F)nc1-c1ccc(CC2c3cc(-c4c(Cl)cnn4C(C)C)nn3CCN2C)cc1 (stereo not shown) equals < 100 nM

Entry CCn1cc(C(F)(F)F)nc1-c1ccc(Cn2c(=O)ccn3nc(-c4c(Cl)cnn4C(C)C)nc23)cc1F ; assay system Ub-PCNA levels in the nucleus of ES2 cells (USP1 activity); IC50 recorded at < 100 nM

# CCn1cc(C(F)(F)F)nc1-c1ccc(CN2C(=O)CCn3nc(-c4c(OC)ncnc4C4CC4)nc32)cc1Cl with Ub-PCNA levels in the nucleus of ES2 cells (USP1 activity): IC50 is < 100 nM

Note to self: IC50 of CCn1cc(C(F)(F)F)nc1-c1ccc(CN2C(=O)CCn3nc(-c4c(Cl)cnn4C(C)C)nc32)cc1F with Ub-PCNA levels in the nucleus of ES2 cells (USP1 activity) was < 100 nM

The reported measurements were obtained from patent US20230219965A1.
